test system: NCI/ADR-RES ovarian; assay: NCI-60 one-dose screen, 48 h (100 = growth as untreated, 0 = no growth, -100 = all killed); details: 10 µM unless noted
About 83,000 compounds went through this panel and 20% of them were active in at least one assay; those are over-represented in the sample as a whole.
Output satisfied for growth not less than 80%; output not satisfied otherwise.

I'd appreciate it if you could say whether COc1ccc(-c2cnc3c(-c4cccc5ncccc45)cnn3c2)cc1 has growth at least equal to 80%.
not satisfied

// repeat for Cc1ccc(-n2nc3c(c(C#N)c2=O)CC(c2ccccc2[N+](=O)[O-])C([N+](=O)[O-])=C3O)cc1 (configuration not stated) and report
satisfied

// repeat for Cc1nn(-c2ccccc2)c(Cl)c1/C=N\N=c1/sc2ccccc2n1C and report
satisfied

// repeat for COc1ccc(/C=C/c2nc(Nc3ccc(S(=O)(=O)Nc4nc(C)cc(C)n4)cc3)c3ccccc3n2)cc1 and report
not satisfied

// repeat for CC(=O)[C@@H]1CC[C@]2(C(N)=O)CC[C@]3(C)[C@H](CC[C@@H]4[C@@]5(C)CCCNC(C)(C)[C@@H]5CC[C@]43C)[C@@H]12 and report
satisfied

// repeat for COc1cc2nc(-c3ccc(C(F)(F)F)cc3)cc(OCCCN3CCOCC3)c2cc1OC and report
not satisfied

* * *

Reported growth values are given for each entry in this list.
test system: SK-MEL-2 melanoma; assay: NCI-60 one-dose screen, 48 h (100 = growth as untreated, 0 = no growth, -100 = all killed); details: 10 µM unless noted
Compounds without any hit were thinned out: in the full panel of roughly 83,000, 20% have a hit.
Write it as a number; the unit % goes unstated.

N/C(=N\C(N)=N\c1nc2ccccc2s1)c1ccnc(Br)c1 | 7.48
O=C(CNCCN1CCOCC1)N1c2cccc3cccc(c23)N(C(=O)CNCCN2CCOCC2)C1c1cn(-c2ccccc2)nc1-c1cccc([N+](=O)[O-])c1 | 96.5
c1ccc(Cn2cnc3ccc(-c4nc(-c5ccc6c(c5)ncn6C5CCCCC5)cn5ccnc45)cc32)cc1 | -36.7
COc1ccc(CC(C)=C(c2ccc(OCCN3CCCCCC3)cc2)c2ccc(OCCN3CCCCCC3)cc2)cc1 | -82.2
N#Cc1c(-c2ccccc2)nc2c(c(-c3ccccc3)nn2-c2ccccc2)c1-c1ccc(O)cc1 | 72.7
CC(C)(C)CC(C)(C)n1nnnc1C(NC12CC3CC(CC(C3)C1)C2)c1ccccc1 (stereo not given) | 95.8
CC1=C(C(=O)/C=C/c2c[nH]c3ccccc23)C(c2ccccc2)NC(=S)N1 (stereo not given) | 99.2
COc1cc2oc(-c3cccc(C(=O)Nc4ccc5c(c4)OCO5)c3)cc(=O)c2c(O)c1OC | 89.9

Any idea what its growth is? The compound is NC1=NN=C(N)C1=Cc1cc2ccccc2n2nnnc12
102

// repeat for Cc1cc2nc3c4ccc(Br)cc4n(CCN(C)C)c3nc2cc1C and report
8.78

* * *

system: TK-10 renal; test: NCI-60 one-dose screen, 48 h; details: 10 µM unless noted
The panel holds about 83,000 compounds, 20% with a hit somewhere; the sample as a whole holds those more often. Active and inactive are the calls of the source. The calls were made as follows: active = growth percent below 10; inactive = the rest.
Thanks in advance; please answer with one of these: active, inactive

For orientation, consider the following solved cases.
O=[N+]([O-])c1cc(Br)c2cccc3c2c1CC3 | inactive
CCOC(=O)Nc1ccc(-c2ccc3c(c2)NC(=O)/C3=C\c2ccc[nH]2)cc1 | inactive
C=C1C(=O)O[C@H]2[C@H]1CC/C(COC(=O)NCCc1c[nH]c3ccc(OC)cc13)=C\CC[C@@]1(C)O[C@@H]21 | active
O=S(=O)(NCCCNc1nccc(-c2c(-c3cccc(O)c3)nc3occn23)n1)c1ccc(Cl)cc1 | inactive

Moving on to another compound below.
Any idea what this test logged for O=C(/C(=C/c1ccc([N+](=O)[O-])cc1)SCc1ccc(F)cc1)c1ccc(F)cc1 ?
inactive
